Documented % Max Binding across a set of binders
experimental_target: T1, Human ROR1 (receptor tyrosine kinase-like orphan receptor 1) (human, UniProt Q01973 30-937)
T1 construct: also called hROR1; K562/ROR1
T1 sequence (Q01973 30-937): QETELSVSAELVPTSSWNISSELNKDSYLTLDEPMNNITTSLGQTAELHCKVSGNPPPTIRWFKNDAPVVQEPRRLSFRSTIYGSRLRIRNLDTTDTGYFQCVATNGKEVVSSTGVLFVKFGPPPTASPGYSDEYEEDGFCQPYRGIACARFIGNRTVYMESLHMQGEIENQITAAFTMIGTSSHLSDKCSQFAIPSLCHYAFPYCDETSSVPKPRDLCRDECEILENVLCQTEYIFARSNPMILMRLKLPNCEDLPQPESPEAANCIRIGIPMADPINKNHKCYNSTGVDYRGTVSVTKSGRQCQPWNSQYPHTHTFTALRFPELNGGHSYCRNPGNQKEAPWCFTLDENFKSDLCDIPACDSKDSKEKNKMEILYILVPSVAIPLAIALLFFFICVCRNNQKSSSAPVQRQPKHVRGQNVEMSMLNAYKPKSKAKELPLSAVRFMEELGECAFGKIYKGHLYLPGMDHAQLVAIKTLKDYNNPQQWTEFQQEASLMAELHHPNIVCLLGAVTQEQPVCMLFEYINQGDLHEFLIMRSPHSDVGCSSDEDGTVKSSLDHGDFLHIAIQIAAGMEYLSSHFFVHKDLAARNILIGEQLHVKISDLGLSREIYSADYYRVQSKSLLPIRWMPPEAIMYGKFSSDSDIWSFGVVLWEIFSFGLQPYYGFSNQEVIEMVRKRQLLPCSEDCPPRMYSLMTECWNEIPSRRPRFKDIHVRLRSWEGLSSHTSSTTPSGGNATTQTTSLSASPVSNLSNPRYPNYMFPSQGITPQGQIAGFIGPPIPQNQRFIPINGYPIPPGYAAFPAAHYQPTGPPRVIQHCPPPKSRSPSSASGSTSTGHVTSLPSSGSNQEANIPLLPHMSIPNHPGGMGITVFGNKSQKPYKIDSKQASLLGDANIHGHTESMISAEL
test_protocol: flow cytometry on ROR1-expressing cells; predicted plateau relative to R12 scFv = 100%
measured_property: % Max Binding (%)

# binder, numeric_result
records = [
    ("Clone 350 scFv (scFv) scFv: EVQLVESGGGLVQPGRSLRLSCTASGFTFGDYAMSWVRQAPGKGLEWVSSISGSGRSTDHADYVKGRFTISRDNSKNTVYLQMNRLRAEDTAVYYCAKVSNYEYYFDYWAQGTLVTVSSQPVLTQPHSVSESPGKTVTISCTRSSGSIASNYVQWYQQRPGSAPTTVIYEDNQRPSGVPDRFSGSIDSSSNSASLTISGLKTEDEADYYCQSYDSSNHVFGTGTKLTVL", 137),
    ("Clone 298 scFv (scFv) scFv: EVQLVESGGGLVQPGRSLRLSCTASGFTFGDYAMSWVRQAPGKGLEWVSSISGSGRSTDHADYVKGRFTISRDNSKNTVYLQMNRLRAEDTAVYYCAKVSNYEYYFDYWAQGTLVTVSSGGGGSGGGGSGGGGSEIVLTQSPSVSVAPGQTARITCGGSNIGSESVNWYQWKSGQVPVLVVSDTTDRPSGIPGRFTGTRSGTTATLTISGVEAGDEADYHCQVWDDTGDHPVFGGGTKLTVL", 96),
    ("Clone 305 scFv (scFv) scFv: EVQLVESGGGLVQPGRSLRLSCTASGFTFGDYAMSWVRQAPGKGLEWVSSISGSGRSTDHADYVKGRFTISRDNSKNTVYLQMNRLRAEDTAVYYCAKVSNYEYYFDYWAQGTLVTVSSQSVLTQPPSVSVAPGQTARITCGGNNIGSTSVHWFQQKPGQAPVLVVYDDSDRPSGIPERFSGSNSGNTATLTISRVEAGDEADYYCQVWDNDSDHRVFGGGTKLTVL", 86),
    ("Clone 40 scFv (scFv, the two differ at the VH N-terminus; Printed without a linker) scFv: QVTLKESGGGLVKPGGSLRLSCAASGFTFSNAWMSWVRQAPGKGLEWVGRIKSKTDGGTTDYAAPVKGRFTISRDDSKNTLYLQMNSLRTEDTAVYYCARDFGRWSYYFDYWSQGTLVTVSSQPVLTQPHSVSESPGKTVTISCTRSSGNIASNFVQWYQRRPDGATTNVIYEDTQRPSGVSGRFSGSIDRSSNSASLTISGLRAEDEADYYCQSYDGRNLMFGGGTKVTVL", 81),
    ("Clone 83B scFv (scFv, De-glycosylation variant of clone 83 (S to N at VH position 53, Kabat)) scFv: QVQLVQSGAEVKKPGASVKVSCKASGYTFTSYYMHWVRQAPGQGLEWMGIINPNGGSTSYAQKFQGRVTMTRDTSTSTVYMELSSLRSEDTAVYYCARDSSYDAFDIWGQGTMVTVSSGGGGSGGGGSGGGGSAIQLTQSPSTLSASVGDRVTITCQASQDISNYLNWYQQKPGKAPKLLINDASYLETGVPSRFSGSGSGTDFTLTISSLQPEDIATYYCQQYESLPYTFGQGTKLEIK", 140),
    ("Clone 83 scFv (scFv) scFv: QVQLVQSGAEVKKPGASVKVSCKASGYTFTSYYMHWVRQAPGQGLEWMGIINPSGGSTSYAQKFQGRVTMTRDTSTSTVYMELSSLRSEDTAVYYCARDSSYDAFDIWGQGTMVTVSSGGGGSGGGGSGGGGSAIQLTQSPSTLSASVGDRVTITCQASQDISNYLNWYQQKPGKAPKLLINDASYLETGVPSRFSGSGSGTDFTLTISSLQPEDIATYYCQQYESLPYTFGQGTKLEIK", 70),
    ("Clone 48 scFv (scFv) scFv: QVTLKESGGGLVKPGGSLRLSCAASGFTFSNAWMSWVRQAPGKGLEWVGRIKSKTDGGTTDYAAPVKGRFTISRDDSKNTLYLQMNSLKTEDTAVYYCARDFGRWSYYFDYWSQGTLVTVSSGGGGSGGGGSGGGGSQSVLTQPSSVSGTPGQRVTISCSGSSSNIGSNYVYWYQQLPGTAPKLLIYRNNQRPSGVPDRFSGSKSGTSASLAISGLRSEDEADYYCAAWDDSLSGVVFGGGTKLTVL", 69),
    ("Clone 20 scFv (scFv, 262 differs only at the VH N-terminus; Printed without a linker) scFv: QVTLKESGGGLVKPGGSLRLSCAASGFTFSNAWMSWVRQAPGKGLEWVGRIKSKTDGGTTDYAAPVKGRFTISRDDSKNTLYLQMNSLKTEDTAVYYCARDFGRWSYYFDYWSQGTLVTVSSNIQMTQSPSSLSASVGDRVTITCRASQSINKWLAWYQQKPGKAPKLLIHDASTLESGVPSRFSGSGSGTEFTLTISSLHPDDSATYYCQQLKSRPLSFGEGTKLEIK", 97),
    ("Clone 366 scFv (scFv, Printed without a linker) scFv: EVQLVESGGGLVQPGRSLRLSCTASGFTFGDYAMSWVRQAPGKGLEWVSSISGSGRSTDHADYVKGRFTISRDNSKNTVYLQMNRLRAEDTAVYYCAKVSNYEYYFDYWAQGTLVTVSSQSVLTQPPSVPGTPGQRVTITCSGSRFNIGSNTVNWYQQLPGTAPKLLIYSNNQRPSGVPDRFSGSKSGTSASLAISGLQSEDEADYYCAAWDDSLNGYVFGTGTKLTVL", 104),
]
